Source: paper PMC2045677

# Test target: SmTRα(Gln182-Ala288) (Schistosoma mansoni, UniProt Q2TUU7 182-288)
# Test description: EMSA; monomer or homodimer; cold self competes; EMSA on ice 40 min, 15 µl with 3 µl 5x buffer (5x: 20% glycerol, 5 mM MgCl2, 2.5 mM EDTA, 2.5 mM DTT, 250 mM NaCl, 50 mM Tris-HCl pH 7.5, 0.25 mg/ml poly(dI-dC)); 6% native gel, 1x TBE, 4°C
# Condition parameters: protein: ivt; tags: none stated (pCITE-4a); label: 32P; blunt
Property name: binding result

Please give the measured binding result for this binder: DR2 (dsDNA) DNA 1: CCGTAAGGTCACAAGGTCACTCG DNA 2: CGAGTGACCTTGTGACCTTACGG binds

Look up binding result: DR3 (dsDNA) DNA 1: CCGTAAGGTCACAGAGGTCACTCG DNA 2: CGAGTGACCTCTGTGACCTTACGG binds

Data request, read-out binding result, for half-site (dsDNA) DNA 1: GTACCGTAAGGTCACTCGCGT DNA 2: ACGCGAGTGACCTTACGGTAC binds
